- experimental-target: T1, human DLL3 extracellular domain (ECD) with C-terminal 8xHis tag and Avi tag (human, UniProt Q9NYJ7 27-492)
- T1 construct: extracellular domain; Expressed in Expi293, purified by IMAC and SEC; also called huDLL3; not shown: Avi tag
- T1 sequence: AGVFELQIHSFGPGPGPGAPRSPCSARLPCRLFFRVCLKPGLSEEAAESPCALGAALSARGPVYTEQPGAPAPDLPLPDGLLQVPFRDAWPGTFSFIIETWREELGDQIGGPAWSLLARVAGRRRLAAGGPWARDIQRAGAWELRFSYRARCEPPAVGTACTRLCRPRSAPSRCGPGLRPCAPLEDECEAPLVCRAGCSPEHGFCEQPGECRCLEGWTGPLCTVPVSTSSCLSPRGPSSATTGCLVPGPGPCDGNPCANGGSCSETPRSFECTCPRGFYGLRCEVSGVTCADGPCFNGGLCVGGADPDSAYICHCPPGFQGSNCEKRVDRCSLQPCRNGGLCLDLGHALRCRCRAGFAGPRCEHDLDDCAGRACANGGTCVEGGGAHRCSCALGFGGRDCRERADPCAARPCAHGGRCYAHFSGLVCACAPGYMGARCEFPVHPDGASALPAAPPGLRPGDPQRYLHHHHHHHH
- test-method-notes: SPR (Biacore), 37 C; scFv-Fc captured on chip, human DLL3 ECD in solution; 1:1 Langmuir fit
readout-name: pKd
Expect pKd as a plain number equal to -log10 of the molar concentration.

The examples below pair each entry with its known result.
6F8 scFv-Fc fusion (Fc fusion, not shown: a dimerising Fc or GST, scFv-Fc expressed in Expi293) scFv: QVQLVQSGAEVKKPGSSVKVSCKASGGTFTNYCISWVRQAPGQGLEWMGGIIPIFGTTNYAQTFQGRVTITADKSTSTAYMELSSLRSEDTAVYYCARDNGDRYYYDMDVWGQGTTVTVSSGGGGSGGGGSGGGGSGGGGSQSVLTQPPSVSAAPGQKVTISCSGSSSNIGNNYVSWYQQLPGTAPKLLIYDNNKRPSGIPDRFSGSKSGTSATLGITGLQTGDEADYYCGTWDSSLSAVVFGGGTKLTVL ... 7.39
17A2 scFv-Fc fusion (Fc fusion, not shown: a dimerising Fc or GST, scFv-Fc expressed in Expi293) scFv: QVQLQESGPGLVKPSGTLSLTCVVFGDSISSSNWWSWVRQPPGKGLEWIGEVFHSGSTNYNPSLKSRVTISVDKSKNQFSLKLSSVTAADTAVYYCARAAVAGALDYWGQGTLVTVSSGGGGSGGGGSGGGGSGGGGSDIVMTQSPDSLAVSLGERATINCKSSQSVLYSSNNKNYLAWYQQKPGQPPNLLVYWASTRESGVPDRFSGAGSGTDFTLTISSLQAEDVAVYYCQQYYGTSWTFGQGTKVEIK ... 8.42

Attention now shifts to the item below.
Look up pKd: 2A6.C5 scFv-Fc fusion (Fc fusion, not shown: a dimerising Fc or GST, scFv-Fc expressed in Expi293) scFv: QVQLQESGPGLVKPSETLSLTCTVSNVSISSYYWSWIRQPPGKGLEWIGYIYYSGTTNYNPSLKSRVTMSVDTSKNQFSLKLSSVTAADTAVYFCARLSNWGFAFDIWGQGTMVTFSSGGGGSGGGGSGGGGSGGGGSEIVLTQSPGTLSLSPGERATLSCRASQTISSSYLAWYQQKPGQAPRLLIYGASSRATGIPDRFSGSGSGTEFTLTISRLEPEDFAVYYCQQYGWSPITFGQGTRLEIK
7.32
